# run-description: PAMPA permeability
# Type: in vitro ADME
Give measured PAMPA Permeability for each item. Keep answers brief.
One number for each entry, in ×10⁻⁶ cm/s.

Below, each entry is followed by its recorded PAMPA Permeability result.
compound	result-value
O=C(c1ccc(-n2c(=O)ccc3cnc4ccc(-c5ccc(OC6CCNCC6)cc5)cc4c32)cc1)N1CCOCC1	3.3
Cc1cc(C(=O)NCCCN2CCN(C)CC2)ccc1-n1c(=O)ccc2cnc3ccc(-c4ccc(Cl)cc4)cc3c21	598
Cn1c(=O)n(-c2cccc(C#N)c2)c2c3cc(-c4ccc(F)cc4)ccc3ncc21	223
CNCc1cc(-n2c(=O)ccc3cnc4ccc(-c5ccc(Cl)cc5)cc4c32)ccc1C(=O)N1CCOCC1	1070
O=C(NC1CCNC1)c1ccc(-n2c(=O)ccc3cnc4ccc(-c5ccc(Cl)cc5)cc4c32)cc1 (centres unmarked)	7.8
O=C(c1ccc(-n2c(=O)ccc3cnc4ccc(-c5cccc(Cl)c5)cc4c32)cc1)N1CCOCC1	822
O=C(c1ccc(-n2c(=O)ccc3cnc4ccc(-c5cccc(O)c5)cc4c32)cc1)N1CCOCC1	735
O=C(c1ccc(-n2c(=O)ccc3cnc4ccc(-c5ccc(Cl)cc5)cc4c32)cc1)N1CCCCC1	389
O=C(c1ccc(-n2c(=O)ccc3c(F)nc4ccc(-c5ccc(Cl)cc5)cc4c32)cc1)N1CCOCC1	564
Cc1cc(C(=O)NCCN(C)C)ccc1-n1c(=O)ccc2cnc3ccc(-c4ccc(Cl)cc4)cc3c21	1010

List the reported PAMPA Permeability of each compound below.
1. Cc1ccc(C#N)cc1-n1c(=O)n(C)c2cnc3ccc(-c4ccc(Cl)cc4)cc3c21
2. CNC(=O)c1ccc(-n2c(=O)ccc3cnc4ccc(-c5ccc(CN(C)C)cc5)cc4c32)cc1
3. Nc1cc(-c2ccc3ncc4ccc(=O)n(-c5ccc(C(=O)NC6CC6)cc5)c4c3c2)ccc1Cl
4. O=C(c1ccc(-n2c(=O)ccc3cnc4ccc(-c5ccc(CN6CCCC6)cc5)cc4c32)cc1)N1CCOCC1
5. CN(C)Cc1ccc(-c2ccc3ncc4ccc(=O)n(-c5ccc(C(=O)N6CCNCC6)cc5)c4c3c2)cc1

Reply |
1. 1460
2. 49.9
3. 439
4. 292
5. 1.5
